# Tgt: Mitogen-activated protein kinase kinase kinase 5 (Homo sapiens)
# Sequence (whole entry): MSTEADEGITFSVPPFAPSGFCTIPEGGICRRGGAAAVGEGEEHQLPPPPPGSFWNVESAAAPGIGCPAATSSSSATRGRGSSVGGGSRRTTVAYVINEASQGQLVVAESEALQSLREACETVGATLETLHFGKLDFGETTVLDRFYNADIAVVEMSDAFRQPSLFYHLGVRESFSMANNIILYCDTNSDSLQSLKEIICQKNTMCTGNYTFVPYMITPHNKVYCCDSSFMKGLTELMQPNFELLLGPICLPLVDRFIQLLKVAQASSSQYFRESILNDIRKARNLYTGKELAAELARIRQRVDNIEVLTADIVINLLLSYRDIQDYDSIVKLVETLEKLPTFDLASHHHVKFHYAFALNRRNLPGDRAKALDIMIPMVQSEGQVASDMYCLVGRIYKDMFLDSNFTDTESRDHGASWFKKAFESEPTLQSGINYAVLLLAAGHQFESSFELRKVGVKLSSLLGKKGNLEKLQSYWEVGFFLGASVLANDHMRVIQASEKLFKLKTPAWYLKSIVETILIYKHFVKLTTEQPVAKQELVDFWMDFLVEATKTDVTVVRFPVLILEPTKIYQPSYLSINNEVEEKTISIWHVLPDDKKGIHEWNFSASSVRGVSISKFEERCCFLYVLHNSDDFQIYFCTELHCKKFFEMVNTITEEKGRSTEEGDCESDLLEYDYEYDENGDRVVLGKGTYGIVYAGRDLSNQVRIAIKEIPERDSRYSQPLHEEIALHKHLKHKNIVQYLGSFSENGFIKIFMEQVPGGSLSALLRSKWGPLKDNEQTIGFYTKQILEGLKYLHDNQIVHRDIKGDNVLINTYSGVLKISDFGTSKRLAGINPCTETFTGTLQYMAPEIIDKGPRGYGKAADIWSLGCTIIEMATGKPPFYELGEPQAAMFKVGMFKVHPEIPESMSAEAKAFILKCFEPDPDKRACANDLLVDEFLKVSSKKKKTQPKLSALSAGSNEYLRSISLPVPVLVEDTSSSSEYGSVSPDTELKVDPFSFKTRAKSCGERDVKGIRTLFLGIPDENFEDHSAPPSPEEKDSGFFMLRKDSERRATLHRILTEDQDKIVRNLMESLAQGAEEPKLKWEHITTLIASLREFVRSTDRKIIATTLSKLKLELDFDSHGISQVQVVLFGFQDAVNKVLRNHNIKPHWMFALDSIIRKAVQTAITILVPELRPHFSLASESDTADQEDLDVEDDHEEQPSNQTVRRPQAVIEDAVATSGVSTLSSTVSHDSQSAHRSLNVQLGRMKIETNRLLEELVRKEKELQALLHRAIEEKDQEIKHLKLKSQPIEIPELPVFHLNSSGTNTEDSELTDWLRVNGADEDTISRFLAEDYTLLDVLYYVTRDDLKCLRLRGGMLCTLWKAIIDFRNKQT

- Chemical String: "O=C1Cc2c([nH]c3ccc(Br)cc23)-c2ccccc2N1"
  Tgt: "Mitogen-activated protein kinase kinase kinase 5 (Homo sapiens)"
  ΔTm: "0.8 °C"
- Chemical String: "Nc1cccc(-c2cc3c(Oc4cccc(O)c4)ncnc3[nH]2)c1"
  Tgt: "Mitogen-activated protein kinase kinase kinase 5 (Homo sapiens)"
  ΔTm: "0.5 °C"
- Chemical String: "Nc1nccc(-c2c(-c3ccc(F)cc3)ncn2C2CCNCC2)n1"
  Tgt: "Mitogen-activated protein kinase kinase kinase 5 (Homo sapiens)"
  ΔTm: "0.3 °C"
